Data credit: patent US20190106487A1

Molecular target: T1, rhIL-1RAcP/Fc Chimera (human, UniProt Q9NPH3 21-359)
T1 construct: also called P013_03; P013-03
T1 sequence (looked up): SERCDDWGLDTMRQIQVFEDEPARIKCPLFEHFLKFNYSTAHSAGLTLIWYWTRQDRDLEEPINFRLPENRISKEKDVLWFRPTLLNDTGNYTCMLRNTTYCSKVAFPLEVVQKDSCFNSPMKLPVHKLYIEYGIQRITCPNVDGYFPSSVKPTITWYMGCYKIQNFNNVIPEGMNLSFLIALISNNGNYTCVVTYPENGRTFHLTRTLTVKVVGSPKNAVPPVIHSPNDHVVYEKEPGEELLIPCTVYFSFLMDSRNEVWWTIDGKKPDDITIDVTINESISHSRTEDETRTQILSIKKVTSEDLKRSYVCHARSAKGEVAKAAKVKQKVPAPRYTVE
Test: ELISA, primary supernatant, coated hu-IL-1RAcP-Fc
Protocol: Microtiter plates were coated IL-1RACP and/or IL12Rβ1 protein (recombinant Fc chimeric conjugates of human IL-1RACP or IL12Rβ1). After a blocking process, specific antibodies from B-cell supernatants bind to the targets and are then detected by a POD-labeled anti-rabbit IgG antibody. […] 12.5 μL 0.5 μg/mL IL-1RACP protein in PBS was transferred to a microtiter plate, incubated and washed 3× with Wash Buffer. […] Absorbance (Optical Density O.D.) was read at 450 nm/620 nm.
measurement-name: hu-IL1RaP ELISA (OD)
Provide only the numeric value, understood in OD.

binder	quantitative-readout
P013.S.01.B.D05 (antibody, V domains shown, rabbit monoclonal antibody; also called P013.A.00085.G03) VH: EQSGGGAEGGLVKPGGSLELYCKASGFSLSSDAWICWVRQAPGKGLEWIGCIYAGSASNTYYATWVNGRFTLSRDIAQSTGCLQLNSLTAADTAMYYCARDRGYDDYGDITRLDLWGQGTLVTVSS VL: ALVLTQTPSPVSAAVGGTVTINCQASEDIYSNLAWFQQKPGQPPKLLIYRASTLASGVPSRFSGSGSGTEFTLTISGLQSDDAATYYCLGVYTYLSDLFFVFGGGTEVVVK	3.4
P013.S.01.B.A06 (antibody, V domains shown, rabbit monoclonal antibody; also called P013.A.00133.B12) VH: QSLEESGGRLVTPGTPLTLSCKVSGFSLSSYDMSWVRQTPGKGLEWIGTIYIGGTTAYASWPKGRFTISKTSTTVDLKITSPTKEDTATYFCARLQGANYYNSLALWGQGTLVTVSS VL: DVVMTQTPASVSEPVGGTVTIKCQASQSIYSFLSWYQQKPGQPPKLLIYAASDLESGVPSRFSGSGYGTEFTLTISDLESADAATYYCQCNYIIDYGAFGGGTEVVVK	3.5
P013.S.01.B.E04 (antibody, V domains shown, rabbit monoclonal antibody; also called P013.A.00109.D07) VH: QSVEESGGRLVTPGTPLTLTCTVSGIDLNSNGINWVRQAPGKGLEWIGYIGAGDITYCASWAKGRFTISKTSSTTVDLKITSLTTEDTATYFCARWGPGALDLWGQGTLVTVSS VL: AQVLTQTASSVSATVGGTVTISCQSSQSVYNNNYLSWYQQKPGQPPKLLIYKASTLASGVPLRFSGSGSGTQFTLTISGVQSDDAATYYCAGFYETTDVGFGGGTEVVVK	3.3
P013.S.01.B.A02 (antibody, V domains shown, rabbit monoclonal antibody; also called P013.A.00003.H11) VH: QSVEESGGRLVTPGTPLTLTCTVSGIDLSSYAMGWVRQAPGKGLEYIGVITSSATTYYASWAKGRFTISKTSSTTVDLRVTSLTTEDTATYFCARGGPGYSTNTHYAFDPWGPGTLVTVSS VL: AFEMTQTPSSVSEPVGGTVTIKCQASQSIYIYLSWYQQKPGQRPKLLIYDASKLASGVPSRFSGSGSGTEFTLTISGVQSDDAATYYCQQGATTYNVDNVFGGGTEVVVK	3.5

Incoming: What value of hu-IL1RaP ELISA (OD) has been reported for the following binder? P013.S.01.B.A03 (antibody, V domains shown, rabbit monoclonal antibody; also called P013.A.00088.A07) VH: QEQLEESGGDLVQPEGSLTVTCTASGFSFSFGYYMCWVRQAPGKGLEWIACIYGDSSDTLYANWAKGRFTVSKTSSTTVTLQMTSLTAADTATYFCARYPGGSYYNLWGPGTRVTVSS VL: ALVMTQTPASVEAAVGGTVTIKCQASQTISINLAWYQQKPGQRPKLLIYYASTLASGVPSRFSGSGSGTEFTLTISGVQSDDAATYYCQQGYTEDNIDNTFGGGTEVVVK
Outgoing: 3.3

Incoming: What value of hu-IL1RaP ELISA (OD) has been reported for the following binder? P013.S.02.B.G02 (antibody, V domains shown, rabbit monoclonal antibody; also called P013.A.00014.C07) VH: QSLEESGGDLVKPGASLTLTCTASGFSLSSGGMTWVRQAPGKGLEWIGYINTGSGRTYYASWAKGRFIISKTSSTTVSLQMTSLTAADTATYFCAGGLPSDLWGPGTLVTVSS VL: DIVMTQTPSSVEAAVGGTVTIKCQASQSINSRLAWYQQKPGQPPKLLIYDASTLASGVSSRFSGSGTEFTLTISDLESADGATYYCLSHYLTSSSSYGNAFGGGTEVVVK
Outgoing: 3.6

Incoming: What value of hu-IL1RaP ELISA (OD) has been reported for the following binder? P013.S.01.B.E03 (antibody, V domains shown, rabbit monoclonal antibody; also called P013.A.00015.E03) VH: QSLEESGGRLVTPGTPLTLTCTASGFSITNYHISWVRQAPGKGLEWIGYIYAGRDFTYYANWAEGRFTISKTSTTVDLQVTVPTTEDTATYFCARDGGSPNWTLDLWGQGTLVTVSS VL: DVVMTQTPASVSEPVGGTVTINCQASESISDYLSWYQQKPGQPPKLLIYRASTLESGVSSRFKGSGSGTQFTLTISDLESADAATYYCQSNYYDSRGNAFGGGTEVVVK
Outgoing: 3.4

Incoming: What value of hu-IL1RaP ELISA (OD) has been reported for the following binder? P013.S.01.B.D04 (antibody, V domains shown, rabbit monoclonal antibody; also called P013.A.00088.B09) VH: QEQLKESGGRLVTPGGSLTLTCTVSGFSLSIYAMGWFRQAPGKGLEWIGDIYPGSDSTWYASWAKGRFTISKTSTTVDLKITSPTTEDTATYFCAREIDAGYVGYGFDLWGQGTLVTVSS VL: AQALTQTPSSVSAAVGGTVTINCQSSQSVYSDYLAWYQQKPGQSPKLLIYKASKLASGVPSRFKGSGSGTEFTLTISGVQSDDAATYYCQATYYSVGWYRAFGGGTEVVVK
Outgoing: 3.9

Incoming: What value of hu-IL1RaP ELISA (OD) has been reported for the following binder? P013.S.01.B.E06 (antibody, V domains shown, rabbit monoclonal antibody; also called P013.A.00030.F07) VH: QSLEESGGDLVKPGASLTLTCTASGFSFSSTYYMCWVRQAPGKGLEWIACIYAGSSGSTYYASWAKGRFTISKTSSTTVTLQMTSLTAADTATYFCARVDGSSSGSWDLWGPGTLVTVSS VL: AIEMTQTPSSVSAAVGGTVTINCQASQNIYSNLAWYQQKPGQRPKLLIYAASLLASGVPSRFKGNGSGTEYTLTISDLESADAATYYCQGAVYSGNTEWAFGGGTEVVVK
Outgoing: 3.4

Incoming: What value of hu-IL1RaP ELISA (OD) has been reported for the following binder? P013.S.01.B.G04 (antibody, V domains shown, rabbit monoclonal antibody; also called P013.A.00013.G06) VH: QSVEESGGRLVTPGTPLTLTCTVSGFSLSVYAMGWFRQAPGKGLEWIGDIYIASDGTWYANWAKGRFTISKTSTTVDLKITSPTTEDTATYFCAREIDAGYVGYGFNLWGQGTLVTVSS VL: AQALTQTPSPVSAAVGGTVTINCQSSQSVYSDYLGWYQQKPGQPPKLLIYWASKLETGVPSRFKGSGSGTQFTLTISGVQSDDAATYYCQATYYGSGWYRAFGGGTEVVVK
Outgoing: 3.4
